Where do the numbers come from? From patent US20230181474A1.

Readings of Equivalent Circle Diameter D10 for the listed compounds
assay: Evaluation of particle size by dynamic particle image analysis (iSpect DIA-10); type: physicochemical; details: dispersion medium 10% polysorbate 20 aqueous solution
Give the number; µm is assumed, so skip it.

compound	Equivalent Circle Diameter D10, µm
Cc1nc(Cl)c(-c2noc(-c3cc(O)c(O)c([N+](=O)[O-])c3)n2)c(C)c1Cl [Micronized Product A2]	7

Looking up Cc1nc(Cl)c(-c2noc(-c3cc(O)c(O)c([N+](=O)[O-])c3)n2)c(C)c1Cl [Micronized Product A3] , I see its Equivalent Circle Diameter D10 listed as 7

So for Cc1nc(Cl)c(-c2noc(-c3cc(O)c(O)c([N+](=O)[O-])c3)n2)c(C)c1Cl [Micronized Product A 1] , the logged Equivalent Circle Diameter D10 turned out to be 7

Value of Equivalent Circle Diameter D10 reported for the compound Cc1nc(Cl)c(-c2noc(-c3cc(O)c(O)c([N+](=O)[O-])c3)n2)c(C)c1Cl [Non-micronized Product] is 6

====

assay: Evaluation of particle size by dynamic particle image analysis (iSpect DIA-10); type: physicochemical; conditions: dispersion medium 10% polysorbate 20 aqueous solution
measured_metric: Equivalent Circle Diameter D50 (µm)
Quick note: give the figure in µm, leave out the unit.

Solved cases below.
compound	Equivalent Circle Diameter D50 [µm]
Cc1nc(Cl)c(-c2noc(-c3cc(O)c(O)c([N+](=O)[O-])c3)n2)c(C)c1Cl [Non-micronized Product]	13
Cc1nc(Cl)c(-c2noc(-c3cc(O)c(O)c([N+](=O)[O-])c3)n2)c(C)c1Cl [Micronized Product A3]	11
Cc1nc(Cl)c(-c2noc(-c3cc(O)c(O)c([N+](=O)[O-])c3)n2)c(C)c1Cl [Micronized Product A 1]	11

// below: Equivalent Circle Diameter D50 requested for another compound
response.value for Cc1nc(Cl)c(-c2noc(-c3cc(O)c(O)c([N+](=O)[O-])c3)n2)c(C)c1Cl [Micronized Product A2] (field: Equivalent Circle Diameter D50) = 11

====

Assay: Evaluation of particle size by dynamic particle image analysis (iSpect DIA-10)
Assay type: physicochemical
Settings: dispersion medium 10% polysorbate 20 aqueous solution
Description: In the present specification, “maximum length” refers to a maximum length between two points on a contour of a particle, and this may be measured by the dynamic image analysis method. […] In the present specification, “equivalent circle diameter” refers to the diameter of a circle that has the same area as the projected area of a particle image, and this may be measured by the dynamic image analysis method. […]
Catalogue of Maximum Length D90 values

Recorded Maximum Length D90, per entry:
molecule	measurement
Cc1nc(Cl)c(-c2noc(-c3cc(O)c(O)c([N+](=O)[O-])c3)n2)c(C)c1Cl [Micronized Product A3]	73 µm
Cc1nc(Cl)c(-c2noc(-c3cc(O)c(O)c([N+](=O)[O-])c3)n2)c(C)c1Cl [Micronized Product A 1]	63 µm
Cc1nc(Cl)c(-c2noc(-c3cc(O)c(O)c([N+](=O)[O-])c3)n2)c(C)c1Cl [Non-micronized Product]	111 µm

Next item in the queue.
Record summary for Cc1nc(Cl)c(-c2noc(-c3cc(O)c(O)c([N+](=O)[O-])c3)n2)c(C)c1Cl [Micronized Product A2] : reported Maximum Length D90 = 60 µm

====

experiment: Evaluation of particle size by dynamic particle image analysis (iSpect DIA-10); assay type: physicochemical; conditions: dispersion medium 10% polysorbate 20 aqueous solution
measured_metric: Maximum Length D10

molecule	Maximum Length D10
Cc1nc(Cl)c(-c2noc(-c3cc(O)c(O)c([N+](=O)[O-])c3)n2)c(C)c1Cl [Non-micronized Product]	16 µm
Cc1nc(Cl)c(-c2noc(-c3cc(O)c(O)c([N+](=O)[O-])c3)n2)c(C)c1Cl [Micronized Product A2]	16 µm
Cc1nc(Cl)c(-c2noc(-c3cc(O)c(O)c([N+](=O)[O-])c3)n2)c(C)c1Cl [Micronized Product A3]	15 µm

Next:
Looking up Cc1nc(Cl)c(-c2noc(-c3cc(O)c(O)c([N+](=O)[O-])c3)n2)c(C)c1Cl [Micronized Product A 1] , I see its Maximum Length D10 listed as 16 µm
